molecular target: Lysine-specific histone demethylase 1A (Homo sapiens, UniProt O60341); experiment: Inhibition of recombinant LSD1 (unknown origin) expressed in Escherichia coli BL21(DE3) strain using H3K4me2 peptide as substrate at 10 uM incubated for 30 mins by fluorescence based analysis relative to control

# Smiles Input, inhibition
data = [
    ("Cc1ccc(Nc2c3ccccc3nc3ccccc23)cc1", "57.9%"),
    ("COc1ccc2c(Nc3ccc(N4CCN(C)CC4)cc3)c3ccccc3nc2c1", "100%"),
    ("COc1ccc(Nc2c3ccccc3nc3ccccc23)cc1", "100%"),
    ("Cc1cc2nc3ccccc3c(Nc3ccc(N4CCN(C)CC4)cc3)c2cc1C", "100%"),
    ("c1ccc2c(Nc3ccc4c(c3)OCCO4)c3ccccc3nc2c1", "97.7%"),
    ("CS(=O)(=O)Nc1ccc(Nc2c3ccccc3nc3ccccc23)cc1", "100%"),
    ("CC(C)c1ccc2nc3ccccc3c(Nc3ccc(N4CCN(C)CC4)cc3)c2c1", "100%"),
    ("c1ccc(Nc2c3ccccc3nc3ccccc23)cc1", "99.2%"),
    ("Fc1ccc(C(c2ccc(F)cc2)N2CCN(c3ccc(Nc4c5ccccc5nc5ccccc45)cc3)CC2)cc1", "68.1%"),
    ("c1ccc2c(Nc3ccc(N4CCOCC4)cc3)c3ccccc3nc2c1", "100%"),
    ("CC(=O)Nc1ccc(Nc2c3ccccc3nc3ccccc23)cc1", "67.8%"),
    ("COc1cc(NS(C)(=O)=O)ccc1Nc1c2ccccc2nc2ccccc12", "100%"),
    ("c1ccc(CN2CCN(c3ccc(Nc4c5ccccc5nc5ccccc45)cc3)CC2)cc1", "97%"),
    ("CC(C)c1ccc(Nc2c3ccccc3nc3ccccc23)cc1", "43.4%"),
    ("Nc1ccc(Sc2c3ccccc3nc3ccccc23)cc1", "100%"),
    ("COc1cccc2c(Nc3ccc(N4CCN(C)CC4)cc3)c3ccccc3nc12", "100%"),
    ("CN1CCN(c2ccc(Nc3c4ccccc4nc4ccccc34)cc2)CC1", "100%"),
    ("Cc1cnc(NS(=O)(=O)c2ccc(Nc3c4ccccc4nc4ccccc34)cc2)o1", "19.2%"),
    ("c1ccc2c(Nc3ccc(N4CCNCC4)cc3)c3ccccc3nc2c1", "100%"),
    ("Nc1ccc(Nc2c3ccccc3nc3ccccc23)cc1", "100%"),
    ("NS(=O)(=O)c1ccc(Nc2c3ccccc3nc3ccccc23)cc1", "4.01%"),
    ("c1ccc2c(NCCN3CCOCC3)c3ccccc3nc2c1", "22.4%"),
    ("CN1CCN(c2ccc(Nc3c4ccccc4nc4ccc(Cl)cc34)cc2)CC1", "100%"),
    ("CSc1ccc(Nc2c3ccccc3nc3ccccc23)cc1", "79.7%"),
    ("CCn1c2ccccc2c2ccc(Nc3c4ccccc4nc4ccccc34)cc21", "97.2%"),
    ("N#Cc1ccc(Nc2c3ccccc3nc3ccccc23)cc1", "29.8%"),
    ("CCN1CCN(c2ccc(Nc3c4ccccc4nc4ccccc34)cc2)CC1", "100%"),
    ("O=C1COCCN1c1ccc(Nc2c3ccccc3nc3ccccc23)cc1", "41%"),
    ("c1ccc2c(Nc3ccc(N4CCCCC4)cc3)c3ccccc3nc2c1", "25%"),
    ("c1ccc2c(NN3CCCCC3)c3ccccc3nc2c1", "95.3%"),
    ("CN1CCN(Cc2ccc(Nc3c4ccccc4nc4ccccc34)cc2)CC1", "45.6%"),
    ("COc1ccc2nc3ccccc3c(Nc3ccc(N4CCN(C)CC4)cc3)c2c1", "100%"),
    ("CN1CCN(c2ccc(Nc3c4ccccc4nc4c(N(C)C)cccc34)cc2)CC1", "97%"),
    ("Cc1ccc2nc3c(C)c(C)ccc3c(Nc3ccc(N4CCN(C)CC4)cc3)c2c1", "100%"),
    ("Cc1ccc2cc(Nc3c4ccccc4nc4ccccc34)ccc2n1", "68.6%"),
    ("Nc1ccc(Oc2c3ccccc3nc3ccccc23)cc1", "100%"),
    ("Nc1ccccc1Nc1c2ccccc2nc2ccccc12", "100%"),
]

---

biological target: Lysine-specific histone demethylase 1A (Homo sapiens); experiment: Inhibition of recombinant LSD1 (unknown origin) expressed in Escherichia coli BL21(DE3) strain using H3K4me2 peptide as substrate incubated for 30 mins by fluorescence based analysis
pIC50: −log10 of the molar value.
Item-by-item account of pIC50

# Smiles Input, pIC50
records = [
    ("CSc1ccc(Nc2c3ccccc3nc3ccccc23)cc1", 6.13),
    ("Fc1ccc(C(c2ccc(F)cc2)N2CCN(c3ccc(Nc4c5ccccc5nc5ccccc45)cc3)CC2)cc1", 6.15),
    ("Cc1ccc(Nc2c3ccccc3nc3ccccc23)cc1", 5.44),
    ("COc1ccc2c(Nc3ccc(N4CCN(C)CC4)cc3)c3ccccc3nc2c1", 6.85),
    ("c1ccc(CN2CCN(c3ccc(Nc4c5ccccc5nc5ccccc45)cc3)CC2)cc1", 5.62),
    ("CCN1CCN(c2ccc(Nc3c4ccccc4nc4ccccc34)cc2)CC1", 6.96),
    ("COc1cc(NS(C)(=O)=O)ccc1Nc1c2ccccc2nc2ccccc12", 6.06),
    ("CN1CCN(c2ccc(Nc3c4ccccc4nc4ccc(Cl)cc34)cc2)CC1", 6.55),
    ("COc1ccc(Nc2c3ccccc3nc3ccccc23)cc1", 5.94),
    ("c1ccc2c(Nc3ccc(N4CCOCC4)cc3)c3ccccc3nc2c1", 6.35),
    ("Cc1cc2nc3ccccc3c(Nc3ccc(N4CCN(C)CC4)cc3)c2cc1C", 7.07),
    ("COc1cccc2c(Nc3ccc(N4CCN(C)CC4)cc3)c3ccccc3nc12", 6.89),
    ("Nc1ccccc1Nc1c2ccccc2nc2ccccc12", 5.08),
    ("CC(C)c1ccc2nc3ccccc3c(Nc3ccc(N4CCN(C)CC4)cc3)c2c1", 6.64),
    ("Nc1ccc(Sc2c3ccccc3nc3ccccc23)cc1", 6.01),
    ("CN1CCN(c2ccc(Nc3c4ccccc4nc4ccccc34)cc2)CC1", 7.14),
    ("CN1CCN(c2ccc(Nc3c4ccccc4nc4c(N(C)C)cccc34)cc2)CC1", 5.22),
    ("Cc1ccc2nc3c(C)c(C)ccc3c(Nc3ccc(N4CCN(C)CC4)cc3)c2c1", 7.00),
    ("CCn1c2ccccc2c2ccc(Nc3c4ccccc4nc4ccccc34)cc21", 6.15),
    ("CC(=O)Nc1ccc(Nc2c3ccccc3nc3ccccc23)cc1", 5.45),
    ("CS(=O)(=O)Nc1ccc(Nc2c3ccccc3nc3ccccc23)cc1", 6.18),
    ("c1ccc(Nc2c3ccccc3nc3ccccc23)cc1", 5.98),
    ("Nc1ccc(Oc2c3ccccc3nc3ccccc23)cc1", 5.76),
]

---

Listing of entries alongside the reported IC50.
target: Lysine-specific histone demethylase 1A (Homo sapiens); assay: Inhibition of recombinant LSD1 (unknown origin) expressed in Escherichia coli BL21(DE3) strain using H3K4me2 peptide as substrate incubated for 30 mins by fluorescence based analysis
Property Measured: IC50 (µM)

# Smiles Input, Unit Info, Number
data = [
    ("COc1ccc2nc3ccccc3c(Nc3ccc(N4CCN(C)CC4)cc3)c2c1", "µM", 0.23),
    ("c1ccc2c(Nc3ccc4c(c3)OCCO4)c3ccccc3nc2c1", "µM", 0.85),
    ("Cc1ccc2cc(Nc3c4ccccc4nc4ccccc34)ccc2n1", "µM", 3.86),
    ("c1ccc2c(Nc3ccc(N4CCNCC4)cc3)c3ccccc3nc2c1", "µM", 0.22),
    ("c1ccc2c(NN3CCCCC3)c3ccccc3nc2c1", "µM", 1.66),
    ("Nc1ccc(Nc2c3ccccc3nc3ccccc23)cc1", "µM", 0.6),
]

The origin of these recorded values is ChEMBL document CHEMBL5346916.
